# test protocol: cells
# Assay type: functional
Active and inactive are the calls of the source.
Items are presented alongside their recorded IC50.

sample smiles	recorded metric	val
Oc1cc(C(F)(F)F)nc2c(C(F)(F)F)cccc12	IC50	50 µM (active)

The compound O=C(CC(=O)c1cc(Cl)ccc1O)c1ccccc1 showed IC50 equal to 9.73 µM (active)

The compound Oc1ccccc1-c1nnc(COc2ccccc2)o1 showed IC50 equal to 8.84 µM (active)

The compound c1ccc2sc(SCc3ccc(-c4nnco4)cc3)nc2c1 showed IC50 equal to 27.4 µM (active)

The compound CCOC(=O)c1cc(-c2csc(COc3ccccc3Cl)n2)on1 showed IC50 equal to 0.4 µM (active)

The compound O=C(Nc1nc2ccccc2[nH]1)c1cccc(Cl)c1 showed IC50 equal to 7.11 µM (active)

----------
Items are presented alongside their recorded AC50.
# tested system: UniProtKB P07900
# Format: functional, organism-based
Active and inactive are the calls of the source.

molecule	AC50
CN(C)/C=C/C(=O)c1ccc2noc(-c3ccccc3)c2c1	2.51 µM (active)
O=[N+]([O-])c1cc(Br)c(Nc2ccccc2)c([N+](=O)[O-])c1	7.5 µM (active)
Cc1[nH]c(N=Nc2ccccc2)nc1N=Nc1ccccc1	3.76 µM (active)

The molecule Cc1ccc(O)c(-c2cc(-c3cccc(Br)c3)[nH]n2)c1 showed AC50 equal to 3.01 µM (active)

The molecule Oc1c(C(Nc2ccccn2)c2cccnc2)cc(Cl)c2cccnc12 (stereo unspecified) showed AC50 equal to 4.19 µM (active)

The molecule O=[N+]([O-])c1ccc(NC(S)=NCCc2ccc(Cl)cc2)cc1 showed AC50 equal to 4.1 µM (active)

----------
Items are presented alongside their recorded IC50.
# tested system: SUMO-activating enzyme (Homo sapiens)
# Sequence (Q9UBE0 whole entry): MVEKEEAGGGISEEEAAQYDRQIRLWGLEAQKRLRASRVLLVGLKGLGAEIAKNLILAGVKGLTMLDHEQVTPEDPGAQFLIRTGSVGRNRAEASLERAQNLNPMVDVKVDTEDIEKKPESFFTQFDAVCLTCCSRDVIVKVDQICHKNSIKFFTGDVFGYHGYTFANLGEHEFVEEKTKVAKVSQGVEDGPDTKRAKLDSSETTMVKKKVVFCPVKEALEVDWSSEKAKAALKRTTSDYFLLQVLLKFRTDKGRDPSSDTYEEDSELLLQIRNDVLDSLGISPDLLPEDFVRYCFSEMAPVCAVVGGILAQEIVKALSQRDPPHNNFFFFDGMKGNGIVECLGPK
# Sequence (Q9UBT2 whole entry): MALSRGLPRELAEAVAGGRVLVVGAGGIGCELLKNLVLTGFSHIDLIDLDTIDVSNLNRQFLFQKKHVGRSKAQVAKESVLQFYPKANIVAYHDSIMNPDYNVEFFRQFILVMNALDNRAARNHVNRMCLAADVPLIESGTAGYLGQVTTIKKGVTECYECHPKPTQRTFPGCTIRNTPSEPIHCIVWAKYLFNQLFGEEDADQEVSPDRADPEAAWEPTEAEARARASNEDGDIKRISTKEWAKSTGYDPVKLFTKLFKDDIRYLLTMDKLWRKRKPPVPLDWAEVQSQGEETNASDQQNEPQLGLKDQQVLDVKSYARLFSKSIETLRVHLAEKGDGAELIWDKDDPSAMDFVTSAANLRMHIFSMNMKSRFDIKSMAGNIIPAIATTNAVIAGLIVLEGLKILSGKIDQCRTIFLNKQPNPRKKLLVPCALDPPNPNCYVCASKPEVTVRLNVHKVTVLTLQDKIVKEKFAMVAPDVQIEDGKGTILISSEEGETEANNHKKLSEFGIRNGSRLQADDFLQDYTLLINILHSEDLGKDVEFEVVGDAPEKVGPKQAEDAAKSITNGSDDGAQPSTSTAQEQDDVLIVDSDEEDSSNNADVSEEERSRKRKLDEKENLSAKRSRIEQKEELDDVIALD
# test protocol: blockers of UBC9-mediated SUMO conjugation – biochemical, AlphaScreen, SUMOylation inhibitor project, confirmation (AID 2018)
# Type: functional
Calls of active or inactive are those of the source.

Take a look at these entries with their results.
sample smiles	IC50
CCCCn1c(NS(=O)(=O)c2ccccc2)c(S(=O)(=O)c2ccc(C)cc2)c2nc3ccccc3nc21	680 nM (active)
CC1=NOC(=O)/C1=C\c1ccc(-c2cc(Cl)ccc2Cl)o1	4890 nM (active)
C=CCn1c(NS(=O)(=O)c2ccccc2)c(S(=O)(=O)c2ccc(C)cc2)c2nc3ccccc3nc21	880 nM (active)

Now let's try a different one.
The molecule N=c1c(S(=O)(=O)c2ccccc2)cc2c(=O)n3ccccc3nc2n1Cc1ccco1 showed IC50 equal to 6010 nM (active)

----------
# System: P388;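 further: compound exposure lasted 48 hours before growth was measured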
# test protocol: cells
# Type: functional
# conditions: Mus musculus
Calls of active or inactive are those of the source. Non-standard residues stand in square brackets, D forms with d. Residues, ends and D or L forms follow the SMILES beside them. ξ: configuration not given here. Pen = CC(C)(S)[C@H](N)C(=O)O; ξL = CC(C)CC(N)C(=O)O
recorded metric: GI50

Take a look at these entries with their results.
compound	GI50
CSCC[C@H](NC(=O)C(CC(C)C)NC(=O)[C@H](Cc1c[nH]cn1)NC(=O)CNC(=O)[C@@H](NC(=O)[C@@H](C)NC(=O)[C@H](Cc1c[nH]c2ccccc12)NC(=O)[C@H](CCC(N)=O)NC(=O)[C@@H](N)CC(N)=O)C(C)(C)SC)C(N)=O (stereo not given in full) (H-NQW[dA][Pen](Me)GH[ξL]M-NH2)	> 100 µM (inactive)
NCCCC(N)(C(=O)O)C(F)F (stereo not given)	275 µM (inactive)

The compound CCOC(=O)/C=C/c1c[nH]c(C(=O)OCC)c1 showed GI50 equal to > 100 µM (inactive)

The compound CCOC(=O)CNC(=O)NC12CC3CC(CC(C3)C1)C2 showed GI50 equal to 63.8 µM (inactive)

The compound c1ccc2c(c1)SCCc1cn[nH]c1-2 showed GI50 equal to > 100 µM (inactive)

// provenance: ChEMBL document CHEMBL1201862
